// values below are reported efflux ratio at 2 h, 1 µM
# Test Target: BCRP (Homo sapiens (Human), UniProt Q9UNQ0)
# Sequence (Q9UNQ0 whole entry): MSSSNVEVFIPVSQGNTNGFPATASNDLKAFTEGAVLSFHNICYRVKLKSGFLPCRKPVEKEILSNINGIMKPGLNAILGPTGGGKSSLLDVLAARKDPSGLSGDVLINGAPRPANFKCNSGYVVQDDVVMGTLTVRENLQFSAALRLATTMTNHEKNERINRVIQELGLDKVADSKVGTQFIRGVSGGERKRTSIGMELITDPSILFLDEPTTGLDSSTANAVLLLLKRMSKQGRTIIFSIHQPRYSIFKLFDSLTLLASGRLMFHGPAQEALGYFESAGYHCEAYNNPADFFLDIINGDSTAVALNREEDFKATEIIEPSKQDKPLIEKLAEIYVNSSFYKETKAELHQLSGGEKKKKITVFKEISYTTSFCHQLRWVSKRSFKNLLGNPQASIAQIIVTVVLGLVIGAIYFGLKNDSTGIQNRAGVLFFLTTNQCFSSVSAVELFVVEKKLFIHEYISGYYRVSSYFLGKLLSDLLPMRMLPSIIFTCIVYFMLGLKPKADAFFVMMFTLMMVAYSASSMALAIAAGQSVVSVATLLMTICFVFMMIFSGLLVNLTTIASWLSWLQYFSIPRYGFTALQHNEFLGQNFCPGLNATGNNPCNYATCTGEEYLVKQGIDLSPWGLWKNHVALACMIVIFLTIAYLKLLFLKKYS
# Procedure Details: BCRP MDCKII efflux assay (Assay 7)
# Format: in vitro ADME
# Study Conditions: dog; efflux ratio Papp(B-A)/Papp(A-B), BCRP MDCKII cells; read-out: Assay 7 Pe Ratio

Compound	Test Target	efflux ratio at 2 h, 1 µM
C=CC(=O)N1CC[C@H]2C[C@H](c3ccc4ncnc(Nc5cc(C)c(Oc6ccn7ncnc7c6)cc5F)c4n3)C[C@H]21 (racemic)	BCRP (Homo sapiens (Human), UniProt Q9UNQ0)	4.5
C=CC(=O)N1[C@H](C)CN(c2ccc3ncnc(Nc4cc(Cl)c(Oc5ccn6ncnc6c5)cc4F)c3n2)C[C@@H]1C	BCRP (Homo sapiens (Human), UniProt Q9UNQ0)	3.4
C=CC(=O)N1[C@@H]2CC[C@H]1[C@H](c1ccc3ncnc(Nc4ccc(Oc5ccn6ncnc6c5)c(C)c4)c3n1)C2 (racemic)	BCRP (Homo sapiens (Human), UniProt Q9UNQ0)	2.2

---

In this section we review reported IC50 values for a set of compounds.
# Test Target: ErbB2 WT (Homo sapiens (Human), UniProt P04626)
# Sequence (P04626 23-1255): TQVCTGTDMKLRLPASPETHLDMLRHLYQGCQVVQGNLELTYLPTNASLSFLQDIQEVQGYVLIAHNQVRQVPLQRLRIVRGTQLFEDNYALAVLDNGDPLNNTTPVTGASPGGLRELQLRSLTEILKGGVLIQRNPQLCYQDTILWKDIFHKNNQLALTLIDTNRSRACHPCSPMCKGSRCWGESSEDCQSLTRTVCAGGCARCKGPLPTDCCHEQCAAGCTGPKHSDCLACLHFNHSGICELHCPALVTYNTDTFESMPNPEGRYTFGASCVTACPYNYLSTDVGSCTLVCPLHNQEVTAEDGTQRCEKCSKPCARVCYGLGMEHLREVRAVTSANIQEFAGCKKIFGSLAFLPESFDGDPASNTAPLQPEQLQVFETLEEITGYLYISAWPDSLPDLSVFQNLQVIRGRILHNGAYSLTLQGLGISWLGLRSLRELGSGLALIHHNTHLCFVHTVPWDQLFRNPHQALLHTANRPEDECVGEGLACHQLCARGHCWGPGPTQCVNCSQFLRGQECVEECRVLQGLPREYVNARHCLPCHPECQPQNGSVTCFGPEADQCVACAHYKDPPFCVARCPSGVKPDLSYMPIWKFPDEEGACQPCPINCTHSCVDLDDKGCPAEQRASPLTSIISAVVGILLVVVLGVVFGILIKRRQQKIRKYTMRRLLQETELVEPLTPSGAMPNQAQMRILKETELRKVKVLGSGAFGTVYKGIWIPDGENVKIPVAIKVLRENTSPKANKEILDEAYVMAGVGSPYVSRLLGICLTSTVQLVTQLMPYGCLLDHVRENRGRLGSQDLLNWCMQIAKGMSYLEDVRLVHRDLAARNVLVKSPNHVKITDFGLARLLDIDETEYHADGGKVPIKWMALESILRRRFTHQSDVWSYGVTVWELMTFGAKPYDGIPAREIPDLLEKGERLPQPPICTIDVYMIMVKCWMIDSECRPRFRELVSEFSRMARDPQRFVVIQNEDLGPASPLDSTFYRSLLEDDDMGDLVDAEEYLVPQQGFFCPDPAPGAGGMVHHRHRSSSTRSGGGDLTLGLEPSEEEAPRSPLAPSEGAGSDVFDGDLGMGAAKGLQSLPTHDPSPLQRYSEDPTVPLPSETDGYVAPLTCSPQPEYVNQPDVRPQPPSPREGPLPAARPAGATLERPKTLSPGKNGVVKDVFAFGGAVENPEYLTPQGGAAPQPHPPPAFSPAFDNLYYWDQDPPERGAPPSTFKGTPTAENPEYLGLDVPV
# Procedure Details: ErbB Enzyme Assay (HTRF KinEASE-TK), Assay 2
# Type: biochemical
# Study Conditions: ErbB2 WT enzyme assay
Result Type: IC50 (nM)

Compound	Value Observed
C=CC(=O)N1C[C@H](c2ccc3ncnc(Nc4ccc(Oc5ccn6ncnc6c5)c(C)c4F)c3n2)CC1(C)C (racemic)	58.5
C=CC(=O)N1C[C@H]2C[C@@H]1[C@H](c1ccc3ncnc(Nc4cc(C)c(Oc5ccn6ncnc6c5)cc4F)c3n1)C2	55
C=CC(=O)N1CC[C@H]2C[C@H](c3ccc4ncnc(Nc5ccc(Oc6ccn7ncnc7c6)c(C)c5F)c4n3)C[C@H]21	15
C=CC(=O)N1CCCC(c2ccc3ncnc(Nc4ccc(Oc5ccn6ncnc6c5)c(Cl)c4F)c3n2)CC1 (stereo not shown)	1.9
C=CC(=O)N1C[C@@H]2C[C@H]1CC[C@@H]2c1ccc2ncnc(Nc3cc(C)c(Oc4ccc5c(c4)ncn5C)cc3F)c2n1	54
C=CC(=O)N1C[C@H]2C[C@@H]1[C@H](c1ccc3ncnc(Nc4ccc(Oc5cnc6c(c5)ncn6C)c(C)c4F)c3n1)C2	119
C=CC(=O)N1C[C@H]2CC[C@@H]1C[C@@H]2c1ccc2ncnc(Nc3cc(C)c(Oc4cnc5c(c4)ncn5C)cc3F)c2n1	289
C=CC(=O)N1CCN(c2ccc3ncnc(Nc4cc(C)c(Oc5cnc6c(c5)ncn6C)cc4F)c3n2)C[C@H]1C1CC1	234
C=CC(=O)N1CCCCC(c2ccc3ncnc(Nc4cc(C)c(Oc5ccn6ncnc6c5)cc4F)c3n2)C1 (stereo not shown)	33.5
C=CC(=O)N1C[C@H]2C[C@@H]1[C@H](c1ccc3ncnc(Nc4ccc(Oc5ccn6ncnc6c5)c(C)c4)c3n1)C2	19.5
C=CC(=O)N1CCN(c2ccc3ncnc(Nc4cc(C)c(Oc5ccn6ncnc6c5)cc4F)c3n2)C[C@H]1C(C)(C)C	10000
C=CC(=O)N1C[C@H](c2ccc3ncnc(Nc4ccc(Oc5ccn6ncnc6c5)c(C)c4F)c3n2)C[C@H]1C (mixture of isomers)	52.1
C=CC(=O)N1C[C@@H]2CC(c3ccc4ncnc(Nc5ccc(Oc6ccn7ncnc7c6)c(C)c5F)c4n3)C[C@H]1C2 (stereo partly shown)	156
C=CC(=O)N1[C@H](C)CN(c2ccc3ncnc(Nc4ccc(Oc5cc(F)c6c(c5)ncn6C)c(C)c4)c3n2)C[C@@H]1C	47.2
C=CC(=O)N1C[C@H]2C[C@@H]1[C@H](c1ccc3ncnc(Nc4ccc(Oc5cnc6c(c5)ncn6C)c(C)c4)c3n1)C2	38
C=CC(=O)N1CCN(c2ccc3ncnc(Nc4cc(Cl)c(Oc5ccn6ncnc6c5)cc4F)c3n2)C[C@@H]1COC	14.3
C=CC(=O)N1CCN(c2ccc3ncnc(Nc4cc(Cl)c(Oc5ccn6ncnc6c5)cc4F)c3n2)C[C@@H]1C1CC1	14.8
C=CC(=O)N(C)[C@@H]1CCN(c2ccc3ncnc(Nc4ccc(Oc5ccn6ncnc6c5)c(C)c4F)c3n2)C1	29.3
C=CC(=O)N1C[C@@H]2CC[C@H]1CN2c1ccc2ncnc(Nc3cc(Cl)c(Oc4ccn5ncnc5c4)cc3F)c2n1	4.6
C=CC(=O)N1CCN(c2ccc3ncnc(Nc4cc(Cl)c(Oc5ccn6ncnc6c5)cc4F)c3n2)C[C@H]1C(C)(C)C	10000
C=CC(=O)N1[C@H]2CC[C@@H]1[C@H](c1ccc3ncnc(Nc4cc(C)c(Oc5ccn6ncnc6c5)cc4F)c3n1)CC2	62.4
C=CC(=O)N1[C@@H](C)CN(c2ccc3ncnc(Nc4cc(C)c(Oc5ccc6c(c5)ncn6C)cc4F)c3n2)C[C@@H]1C	54.2
C=CC(=O)N1[C@@H]2CCC[C@H]1[C@@H](c1ccc3ncnc(Nc4cc(C)c(Oc5ccn6ncnc6c5)cc4F)c3n1)C2	30.1
C=CC(=O)N1[C@H](C)CN(c2ccc3ncnc(Nc4ccc(Oc5ccc6c(c5)ncn6C)c(C)c4F)c3n2)C[C@H]1C	795
C=CC(=O)N1[C@@H](C)CN(c2ccc3ncnc(Nc4cc(Cl)c(Oc5ccc6c(c5)ncn6C)cc4F)c3n2)C[C@@H]1C	10000

---

Recorded pIC50 for the following molecules
# Test Target: EGFR wild type (EGFR WT) (Homo sapiens (Human))
# Sequence (P00533 25-1210): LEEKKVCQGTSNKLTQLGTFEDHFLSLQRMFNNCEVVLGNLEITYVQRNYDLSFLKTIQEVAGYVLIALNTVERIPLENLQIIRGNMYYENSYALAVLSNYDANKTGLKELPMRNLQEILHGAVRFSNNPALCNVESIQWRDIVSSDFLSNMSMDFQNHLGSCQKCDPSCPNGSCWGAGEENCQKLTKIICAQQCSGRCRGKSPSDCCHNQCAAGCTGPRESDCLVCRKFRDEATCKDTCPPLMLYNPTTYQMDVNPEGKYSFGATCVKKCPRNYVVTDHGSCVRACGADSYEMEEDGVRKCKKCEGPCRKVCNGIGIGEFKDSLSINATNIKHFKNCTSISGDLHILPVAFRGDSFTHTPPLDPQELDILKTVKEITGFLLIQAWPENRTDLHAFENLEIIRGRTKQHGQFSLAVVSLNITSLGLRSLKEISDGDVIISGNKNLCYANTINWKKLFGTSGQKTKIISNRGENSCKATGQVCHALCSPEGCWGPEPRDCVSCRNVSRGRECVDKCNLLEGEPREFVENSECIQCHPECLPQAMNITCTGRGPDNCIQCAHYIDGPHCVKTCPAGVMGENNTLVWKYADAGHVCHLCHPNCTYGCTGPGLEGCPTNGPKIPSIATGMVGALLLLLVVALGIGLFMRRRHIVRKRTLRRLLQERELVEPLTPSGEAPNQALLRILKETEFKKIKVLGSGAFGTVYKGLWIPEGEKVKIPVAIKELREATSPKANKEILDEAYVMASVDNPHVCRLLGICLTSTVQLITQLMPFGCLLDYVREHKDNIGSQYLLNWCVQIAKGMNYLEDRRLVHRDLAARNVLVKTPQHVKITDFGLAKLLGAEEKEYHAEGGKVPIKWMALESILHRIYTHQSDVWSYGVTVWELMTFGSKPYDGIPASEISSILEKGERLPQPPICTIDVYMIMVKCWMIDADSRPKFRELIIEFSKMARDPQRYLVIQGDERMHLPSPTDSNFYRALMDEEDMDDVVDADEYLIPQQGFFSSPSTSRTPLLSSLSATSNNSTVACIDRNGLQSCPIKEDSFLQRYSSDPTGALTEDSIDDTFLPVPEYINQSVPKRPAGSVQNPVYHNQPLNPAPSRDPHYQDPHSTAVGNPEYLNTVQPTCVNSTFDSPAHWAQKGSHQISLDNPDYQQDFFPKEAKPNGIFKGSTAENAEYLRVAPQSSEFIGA
# Procedure Details: Cellular Phosphorylation Assay, Assay 5 (EGF-stimulated EGFR phosphorylation, NIH 3T3 cells)
# Format: cell-based
# Study Conditions: cellular EGFR WT phosphorylation, EGF-stimulated
pIC50: −log10 of the molar value.

Smiles Notation	Reported Relation	pIC50
C=CC(=O)N1CCN(c2ccc3ncnc(Nc4cc(C)c(Oc5cnc6c(c5)ncn6C)cc4F)c3n2)CC12CC2	≤	5.30
C=CC(=O)N1CCN(c2ccc3ncnc(Nc4ccc(Oc5cc(F)c6c(c5)ncn6C)c(C)c4)c3n2)CC12CC2	=	6.89
C=CC(=O)N1CCN(c2ccc3ncnc(Nc4ccc(Oc5cnc6c(c5)ncn6C)c(C)c4)c3n2)CC1(C)C	=	5.50
C=CC(=O)N1C[C@H]2C[C@@H]1CN(c1ccc3ncnc(Nc4cc(C)c(Oc5cnc6c(c5)ncn6C)cc4F)c3n1)C2	≤	5.30
C=CC(=O)N1CCCN(c2ccc3ncnc(Nc4ccc(Oc5ccn6ncnc6c5)c(Cl)c4F)c3n2)CC1(C)C	=	6.14
C=CC(=O)N1CCN(c2ccc3ncnc(Nc4cc(Cl)c(Oc5ccn6ncnc6c5)cc4F)c3n2)C[C@H]1COC	=	6.94
C=CC(=O)N1CCN(c2ccc3ncnc(Nc4ccc(Oc5ccn6ncnc6c5)c(Cl)c4F)c3n2)CC12CC2	=	7.45
C=CC(=O)N1CCN(c2ccc3ncnc(Nc4ccc(Oc5ccn6ncnc6c5)c(C)c4F)c3n2)CC12CCC2	=	6.96
C=CC(=O)N1C[C@H]2C[C@@H]1CN(c1ccc3ncnc(Nc4cc(Cl)c(Oc5ccn6ncnc6c5)cc4F)c3n1)C2	≤	5.30
C=CC(=O)N1C[C@H]2CC[C@@H]1[C@@H](c1ccc3ncnc(Nc4ccc(Oc5cnc6c(c5)ncn6C)c(C)c4F)c3n1)C2	≤	5.30

---

# Test Target: UniProt:P00533
# Procedure Details: Cellular Phosphorylation Assay, Assay 5 (EGF-stimulated EGFR phosphorylation, NIH 3T3 cells)
# Format: cell-based
# Study Conditions: cellular EGFR WT phosphorylation, EGF-stimulated

Smiles Notation	IC50
C=CC(=O)N1[C@@H]2CC[C@H]1[C@H](c1ccc3ncnc(Nc4cc(C)c(Oc5ccn6ncnc6c5)cc4F)c3n1)C2	≥ 5 µM
C=CC(=O)N1CCN(c2ccc3ncnc(Nc4ccc(Oc5ccc6c(c5)ncn6C)c(C(F)F)c4)c3n2)CC1	≥ 5 µM
C=CC(=O)N1CCN(c2ccc3ncnc(Nc4cc(C)c(Oc5ccn6ncnc6c5)cc4F)c3n2)C[C@@H]1CC	≥ 5 µM
C=CC(=O)N1CC(Cc2ccc3ncnc(Nc4ccc(Oc5ccn6ncnc6c5)c(C)c4F)c3n2)C1	0.902 µM
C=CC(=O)N1C[C@@H]2C[C@H]1CC[C@@H]2c1ccc2ncnc(Nc3cc(C)c(Oc4ccc5c(c4)ncn5C)cc3F)c2n1	≥ 5 µM
C=CC(=O)N1[C@H](C)CN(c2ccc3ncnc(Nc4ccc(Oc5cc(F)c6c(c5)ncn6C)c(C)c4)c3n2)C[C@@H]1C	≥ 5 µM

---

Consider the following molecules and their measured IC50 readings.
# Test Target: UniProtKB P00533
# Procedure Details: Cellular Phosphorylation Assay, Assay 5 (EGF-stimulated EGFR phosphorylation, NIH 3T3 cells)
# Format: cell-based
# Study Conditions: EGF-stimulated EGFR WT phosphorylation
Result Type: IC50 (nM)

Molecule	Result Type	Unit Of Measure	Reported Relation	Value Observed
C=CC(=O)N1CC[C@@H]2C[C@@H](c3ccc4ncnc(Nc5cc(C)c(Oc6ccn7ncnc7c6)cc5F)c4n3)C[C@@H]21 (single isomer, unassigned)	IC50	nM	≥	5000
C=CC(=O)N1[C@@H]2CC[C@H]1C(c1ccc3ncnc(Nc4ccc(Oc5ccn6ncnc6c5)c(C)c4)c3n1)C2 (single isomer, unassigned)	IC50	nM	≥	5000
C=CC(=O)N1C[C@@H]2C[C@H]1C[C@H]2c1ccc2ncnc(Nc3ccc(Oc4ccc5c(c4)ncn5C)c(C)c3F)c2n1 (racemic)	IC50	nM	=	1450
C=CC(=O)N1CCN(c2ccc3ncnc(Nc4ccc(Oc5ccn6ncnc6c5)c(Cl)c4F)c3n2)C[C@@H]1C(F)(F)F	IC50	nM	=	45.4
C=CC(=O)N1CC(c2ccc3ncnc(Nc4ccc(Oc5ccc6c(c5)ncn6C)c(C)c4F)c3n2)CC1C (stereo not drawn)	IC50	nM	=	1940
C=CC(=O)N1CCN(c2ccc3ncnc(Nc4ccc(Oc5ccn6ncnc6c5)c(C)c4F)c3n2)C[C@@H]1C1CC1 (racemic)	IC50	nM	=	1510

All values here come from patent US12447153B2.
